Biological target: mouse GnRH receptor (Mus musculus, UniProt Q01776)
Construct: expressed in transfected cells; host or cells: 293 cells
Sequence (Q01776 1-327): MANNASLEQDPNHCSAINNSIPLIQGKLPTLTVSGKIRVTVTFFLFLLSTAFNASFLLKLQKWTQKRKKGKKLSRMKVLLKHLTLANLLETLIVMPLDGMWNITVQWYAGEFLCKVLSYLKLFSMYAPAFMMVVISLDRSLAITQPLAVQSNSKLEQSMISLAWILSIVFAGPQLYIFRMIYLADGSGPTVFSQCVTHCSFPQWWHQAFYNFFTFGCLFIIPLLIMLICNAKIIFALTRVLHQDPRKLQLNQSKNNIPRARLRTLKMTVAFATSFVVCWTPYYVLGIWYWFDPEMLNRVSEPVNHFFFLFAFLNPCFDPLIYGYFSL
Test: Radioligand binding, 125I-GnRH-A, 293 cells expressing mouse GnRH receptors
Details: read-out: mGnRH IC50
MEASUREMENT_KIND: IC50 (nM)
// units = nM; emit number, no label

Prompt line: IC50 for "Cc1cc2c(cc1Cc1ccc(C(=O)NC[C@H]3CC[C@H](C(N)=O)CC3)o1)C(C)(C)CCC2(C)C" ?
Response line: 400

Prompt line: IC50 for "COc1cccc(OC)c1NC(=O)c1ccc(Cc2cc(C(C)(C)C)ccc2C)o1" ?
Response line: 83

Prompt line: IC50 for "COc1cc(OC)c(NC(=O)c2ccc(Cc3cc(C(C)(C)C)ccc3C)o2)c(OC)c1" ?
Response line: 13

Prompt line: IC50 for Cc1cc2c(cc1Cc1ccc(C(=O)NCc3ccc(CNc4nccc(NCC5CCCO5)n4)cc3)o1)C(C)(C)CCC2(C)C (stereo not drawn) ?
Response line: 64

Prompt line: IC50 for "Cc1cccc(CNC(=O)c2ccc(Cc3cc4c(cc3C)C(C)(C)CCC4(C)C)o2)c1" ?
Response line: 490

Prompt line: IC50 for "COc1cc2c(cc1Cc1ccc(C(=O)Nc3c(OC)cc(OC)c(C#N)c3OC)o1)C(C)(C)CCC2(C)C" ?
Response line: 11

* * *

Kindly supply the reported inhibition at 1 µM values for the records listed here.
Target: human GnRH receptor (Homo sapiens, UniProt P30968)
Construct: expressed in transfected cells; host or cells: HEK 293 (hGnRH-R/293, from Dr. Stuart Sealfon)
Sequence (P30968 whole entry): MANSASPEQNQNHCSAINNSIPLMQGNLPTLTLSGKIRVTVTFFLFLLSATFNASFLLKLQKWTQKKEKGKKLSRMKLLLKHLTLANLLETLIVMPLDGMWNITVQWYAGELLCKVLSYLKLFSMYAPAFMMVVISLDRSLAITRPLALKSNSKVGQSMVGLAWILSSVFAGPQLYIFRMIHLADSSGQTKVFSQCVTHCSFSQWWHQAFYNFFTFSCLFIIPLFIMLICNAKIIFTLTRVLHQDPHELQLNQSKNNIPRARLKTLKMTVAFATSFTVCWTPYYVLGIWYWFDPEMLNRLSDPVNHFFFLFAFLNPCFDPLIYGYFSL
Experiment: Radioligand binding, 125I-GnRH-A displacement, membranes of HEK 293 cells with human GnRH receptor
Details: 1 uM; read-out: % Inhib. @ 1 uM hGnRH
// units = %; emit number, no label

Prompt line: inhibition at 1 µM for Cc1cc2c(cc1Cc1ccc(C(=O)NCCc3ccccc3)o1)C(C)(C)CCC2(C)C [drawing 1079] ?
Response line: 59

Prompt line: inhibition at 1 µM for "Cc1cc2c(cc1Cc1ccc(C(=O)N3CCN(c4ccccc4Cl)CC3)o1)C(C)(C)CCC2(C)C" ?
Response line: -1

Prompt line: inhibition at 1 µM for Cc1cc2c(cc1Cc1ccc(C(=O)N(C)C(C)Cc3ccccc3)o1)C(C)(C)CCC2(C)C (stereo not shown) ?
Response line: 15

Prompt line: inhibition at 1 µM for Cc1cc2c(cc1Cc1ccc(C(=O)NCC3CCCC(CNc4cccc(NCC5CCCO5)n4)C3)o1)C(C)(C)CCC2(C)C (stereo not shown) ?
Response line: 84

* * *

Molecular target: bovine GnRH receptor (Bos taurus, UniProt P32236)
Construct: membranes were prepared from bovine pituitary; from tissue; host or cells: bovine pituitary
Sequence (P32236 whole entry): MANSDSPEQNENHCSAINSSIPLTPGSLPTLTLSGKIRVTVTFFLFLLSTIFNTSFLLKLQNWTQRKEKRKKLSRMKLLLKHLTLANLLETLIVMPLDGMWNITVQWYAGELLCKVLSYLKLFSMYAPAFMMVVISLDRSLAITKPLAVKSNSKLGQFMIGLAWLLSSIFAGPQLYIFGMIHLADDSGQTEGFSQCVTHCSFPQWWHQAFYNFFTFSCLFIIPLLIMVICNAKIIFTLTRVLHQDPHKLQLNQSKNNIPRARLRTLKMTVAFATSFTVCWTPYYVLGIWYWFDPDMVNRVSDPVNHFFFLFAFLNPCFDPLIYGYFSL
Assay: Radioligand binding, 125I-GnRH-A, bovine pituitary membranes
Conditions: means ± SE of at least three experiments performed in duplicate; read-out: Bovine IC50
MEASUREMENT_KIND: IC50 (nM)
// units = nM; emit number, no label

Prompt line: So what IC50 did "COc1cccc(CNC(=O)c2ccc(Cc3cc4c(cc3C)C(C)(C)CCC4(C)C)o2)c1OC" get with bovine GnRH receptor (Bos taurus, UniProt P32236)?
Response line: 1000

Prompt line: So what IC50 did "Cc1cc2c(cc1Cc1ccc(C(=O)NC[C@H]3CC[C@H](CNC(=N)N)CC3)o1)C(C)(C)CCC2(C)C" get with bovine GnRH receptor (Bos taurus, UniProt P32236)?
Response line: 1500

Prompt line: So what IC50 did "Cc1ccc(CNC(=O)c2ccc(Cc3cc4c(cc3C)C(C)(C)CCC4(C)C)o2)cc1" get with bovine GnRH receptor (Bos taurus, UniProt P32236)?
Response line: 1050

* * *

Biological target: human GnRH receptor (Homo sapiens)
Construct: expressed in transfected cells; host or cells: HEK 293 (hGnRH-R/293, from Dr. Stuart Sealfon)
Assay: Radioligand binding, 125I-GnRH-A displacement, membranes of HEK 293 cells with human GnRH receptor
Settings: 1 uM; read-out: % Inhib. @ 1 uM hGnRH
MEASUREMENT_KIND: inhibition at 1 µM (%)
// units = %; emit number, no label

Prompt line: inhibition at 1 µM for "Cc1cc2c(cc1Cc1ccc(C(=O)N3CCN(c4ccc(Cl)c(Cl)c4)CC3)o1)C(C)(C)CCC2(C)C" ?
Response line: -20

Prompt line: inhibition at 1 µM for Cc1cc2c(cc1Cc1ccc(C(=O)NCc3cccs3)o1)C(C)(C)CCC2(C)C [drawing 1099] ?
Response line: 82

Prompt line: inhibition at 1 µM for "Cc1cc2c(cc1Cc1ccc(C(=O)N[C@@H](CO)Cc3ccc(O)cc3)o1)C(C)(C)CCC2(C)C" ?
Response line: -12

Prompt line: inhibition at 1 µM for Cc1cc2c(cc1Cc1ccc(C(=O)NCc3ccc(Cl)cc3)o1)C(C)(C)CCC2(C)C [drawing 1091] ?
Response line: 68

Prompt line: inhibition at 1 µM for Cc1cc2c(cc1Cc1ccc(C(=O)NCc3cccc(Br)c3)o1)C(C)(C)CCC2(C)C [drawing 1235] ?
Response line: 62

Prompt line: inhibition at 1 µM for Cc1cc2c(cc1Cc1ccc(C(=O)NC3CCN(c4nccc(NCC5CCCO5)n4)C3)o1)C(C)(C)CCC2(C)C (stereo not drawn) [drawing 1036] ?
Response line: -12

Prompt line: inhibition at 1 µM for "Cc1cc2c(cc1Cc1ccc(C(=O)N(CCCO)Cc3ccccc3[N+](=O)[O-])o1)C(C)(C)CCC2(C)C" ?
Response line: -5

Prompt line: inhibition at 1 µM for Cc1cc2c(cc1Cc1ccc(C(=O)NCCc3ccccc3Oc3ccccc3)o1)C(C)(C)CCC2(C)C [drawing 1040] ?
Response line: -11

Prompt line: inhibition at 1 µM for "Cc1cc2c(cc1Cc1ccc(C(=O)NCCc3c[nH]c4ccc(OCc5ccccc5)cc34)o1)C(C)(C)CCC2(C)C" ?
Response line: -6

Prompt line: inhibition at 1 µM for "Cc1cc2c(cc1Cc1ccc(C(=O)N3CCN(c4ccc([N+](=O)[O-])cc4)CC3)o1)C(C)(C)CCC2(C)C" ?
Response line: -18

Prompt line: inhibition at 1 µM for Cc1cc2c(cc1Cc1ccc(C(=O)NC(C)c3ccc(F)cc3)o1)C(C)(C)CCC2(C)C (stereo not drawn) ?
Response line: 28

Prompt line: inhibition at 1 µM for Cc1cc2c(cc1Cc1ccc(C(=O)NCCNc3cccc(NCC4CCCO4)n3)o1)C(C)(C)CCC2(C)C (stereo not drawn) ?
Response line: 18

* * *

Kindly supply the reported half-life values for the records listed here.
Assay: Pharmacokinetic studies / bioavailability in rats
Type: in vivo, rat
Details: male, rat, plasma, iv, 10 mg/kg, rat male
// units = min; emit number, no label

Prompt line: half-life for Cc1cc2c(cc1Cc1ccc(C(=O)NCc3cccc(C)c3C)o1)C(C)(C)CCC2(C)C [Compound 17] ?
Response line: 132

Prompt line: half-life for Cc1ccc(CNC(=O)c2ccc(Cc3cc4c(cc3C)C(C)(C)CCC4(C)C)o2)cc1 [Compound 14] ?
Response line: 84

Prompt line: half-life for Cc1cc2c(cc1Cc1ccc(C(=O)NC[C@H]3CC[C@H](C(=O)O)CC3)o1)C(C)(C)CCC2(C)C [Compound 12] ?
Response line: 36

Prompt line: half-life for Cc1cc2c(cc1Cc1ccc(C(=O)NCc3cccc(CNc4nccc(NC[C@@H]5CCCO5)n4)c3)o1)C(C)(C)CCC2(C)C [Compound 148] ?
Response line: 66

Prompt line: half-life for CC(=O)c1cccc(NC(=O)c2ccc(Cc3cc4c(cc3C)C(C)(C)CCC4(C)C)o2)c1 [Compound 19] ?
Response line: 43

Prompt line: half-life for Cc1cc2c(cc1Cc1ccc(C(=O)NCc3ccccc3F)o1)C(C)(C)CCC2(C)C [Compound 46] ?
Response line: 55

Prompt line: half-life for COc1cccc(OC)c1NC(=O)c1ccc(Cc2cc3c(cc2C)C(C)(C)CCC3(C)C)o1 [Compound 20] ?
Response line: 52

Prompt line: half-life for Cc1cc2c(cc1Cc1ccc(C(=O)NC[C@H]3CC[C@@H](CNC(=N)N)CC3)o1)C(C)(C)CCC2(C)C [Compound 23] ?
Response line: 48
